Provenance of the data: patent US20150315188A1

target: Human adrenergic α2B receptor (Homo sapiens); experiment: Radioligand binding, adrenergic α2B (Protocol Group B); parameters: purchased Milipore (Millipore); details: 0.1 μM compound; Protocol Group B; read-out: Percentage inhibition of ligand binding, Adrenergic α2B (0.1 μM)
Sequence (P18089 whole entry): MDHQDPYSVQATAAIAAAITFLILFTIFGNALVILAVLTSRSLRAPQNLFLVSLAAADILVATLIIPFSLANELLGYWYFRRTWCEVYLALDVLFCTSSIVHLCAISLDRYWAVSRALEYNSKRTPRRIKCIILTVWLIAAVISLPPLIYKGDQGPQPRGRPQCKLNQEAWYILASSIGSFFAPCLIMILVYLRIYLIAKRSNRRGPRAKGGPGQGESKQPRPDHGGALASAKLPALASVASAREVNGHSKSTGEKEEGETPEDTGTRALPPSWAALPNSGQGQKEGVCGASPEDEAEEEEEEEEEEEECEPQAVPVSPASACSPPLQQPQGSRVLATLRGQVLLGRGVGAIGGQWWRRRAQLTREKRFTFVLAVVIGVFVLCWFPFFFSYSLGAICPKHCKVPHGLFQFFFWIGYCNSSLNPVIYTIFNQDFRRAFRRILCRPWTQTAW
Measure Name: inhibition at 0.1 µM (%)

Compound	Unit Abbreviation	inhibition at 0.1 µM
Cc1ccc2c(c1)c1c(n2CC(O)c2ccncc2F)CCN2CCCC12 (single isomer, unassigned) [14a]	%	89
Cc1ccc2c(c1)c1c(n2CC(C)(O)c2cccnc2)CC2CCCN2C1 (single isomer, unassigned) [38b]	%	90
Cc1ccc2c(c1)c1c(n2CC(O)c2ccncc2)CC[N+]2([O-])CCCC12 (stereo not drawn)	%	92

---

target: UniProtKB P35368; experiment: Radioligand binding, adrenergic α1B (Protocol Group B); parameters: purchased Milipore (Millipore); details: 0.3 μM compound; Protocol Group B; 0.3 µM
Sequence (P35368 whole entry): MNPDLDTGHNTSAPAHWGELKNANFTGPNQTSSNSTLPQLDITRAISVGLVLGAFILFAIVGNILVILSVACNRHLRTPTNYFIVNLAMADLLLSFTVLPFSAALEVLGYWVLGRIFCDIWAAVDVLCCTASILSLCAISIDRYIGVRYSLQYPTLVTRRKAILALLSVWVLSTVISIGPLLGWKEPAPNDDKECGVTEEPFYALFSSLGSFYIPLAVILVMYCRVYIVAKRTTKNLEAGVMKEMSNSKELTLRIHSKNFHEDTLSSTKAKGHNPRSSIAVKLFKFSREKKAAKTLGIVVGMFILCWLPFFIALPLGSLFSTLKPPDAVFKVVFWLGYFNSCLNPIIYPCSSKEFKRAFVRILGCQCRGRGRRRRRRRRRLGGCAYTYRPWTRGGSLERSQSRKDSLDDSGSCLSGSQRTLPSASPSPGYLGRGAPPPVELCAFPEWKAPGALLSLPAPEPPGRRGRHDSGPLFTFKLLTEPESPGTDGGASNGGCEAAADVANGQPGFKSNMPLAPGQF
Measure Name: Percentage inhibition of ligand binding, Adrenergic α1B (0.3 μM) (%)

(A) CC(O)(Cn1c2c(c3cc(F)ccc31)C1CCCN1CC2)c1ccncc1 (single isomer, unassigned) [31c]
(B) Cc1ccc2c(c1)c1c(n2CC(O)c2ccncc2)CN(C)C2CCCC12 (single isomer, unassigned) [36a]
// which entry reports the smaller Percentage inhibition of ligand binding, Adrenergic α1B (0.3 μM), A or B ? Reply briefly: the label of your chosen item.
A
(A: −4%, B: 12%)

(I) Cc1cc(C)c2c(c1)c1c(n2CC(C)(O)c2ccncc2)CCN2CCCC12 (single isomer, unassigned) [19d]
(II) CC(O)(Cn1c2c(c3cc(F)ccc31)C1CCCN1CC2)c1cccnc1 (stereo not drawn) [51a]
When their Percentage inhibition of ligand binding, Adrenergic α1B (0.3 μM) values are compared, which is larger, I or II ? Reply briefly: the label of your chosen item.
II
(II: 19%, I: −5%)

(1) Cc1ccc2c(c1)c1c(n2CC(C)(O)c2cccnc2)CC2CCCN2C1 (stereo not drawn) [38a]
(2) Cc1cc(F)c2c(c1)c1c(n2CC(C)(O)c2cccnc2)CC2CCCN2C1 (single isomer, unassigned) [61d]
// which entry reports the smaller Percentage inhibition of ligand binding, Adrenergic α1B (0.3 μM), 1 or 2 ? Reply briefly: the label of your chosen item.
2
